studySystem: Carbonic anhydrase 9 (Homo sapiens)
protocolText: Inhibition of human CA9 preincubated for 6 hrs by phenol red dye based stopped flow CO2 hydration assay
pKi: −log10 of the molar value.
measuredMetric: pKi

>  <cpdSmiles>
O=C(CS(=O)(=O)c1ccccc1)c1cc2ccccc2oc1=O

>  <studySystem>
Carbonic anhydrase 9 (Homo sapiens)

>  <measuredMetric>
pKi

>  <observedValue>
7.38

$$$$
>  <cpdSmiles>
O=C(CS(=O)(=O)c1ccccc1)c1cc2cc(Br)ccc2oc1=O

>  <studySystem>
Carbonic anhydrase 9 (Homo sapiens)

>  <measuredMetric>
pKi

>  <observedValue>
7.12

$$$$
>  <cpdSmiles>
Cc1ccc(S(=O)(=O)C/C(=N\Nc2ccccc2)c2cc3cc(Br)ccc3oc2=O)cc1

>  <studySystem>
Carbonic anhydrase 9 (Homo sapiens)

>  <measuredMetric>
pKi

>  <observedValue>
5.09

$$$$
>  <cpdSmiles>
O=C(N/N=C(\CS(=O)(=O)c1ccccc1)c1cc2cc(Br)ccc2oc1=O)c1ccccc1

>  <studySystem>
Carbonic anhydrase 9 (Homo sapiens)

>  <measuredMetric>
pKi

>  <observedValue>
5.05

$$$$
>  <cpdSmiles>
O=c1oc2ccc(Br)cc2cc1/C(CS(=O)(=O)c1ccccc1)=N/Nc1ccccc1

>  <studySystem>
Carbonic anhydrase 9 (Homo sapiens)

>  <measuredMetric>
pKi

>  <observedValue>
5.33

$$$$
>  <cpdSmiles>
Cc1ccc(S(=O)(=O)CC(=O)c2cc3ccccc3oc2=O)cc1

>  <studySystem>
Carbonic anhydrase 9 (Homo sapiens)

>  <measuredMetric>
pKi

>  <observedValue>
7.18

$$$$
>  <cpdSmiles>
Cc1ccc(S(=O)(=O)CC(=O)c2cc3cc(Br)ccc3oc2=O)cc1

>  <studySystem>
Carbonic anhydrase 9 (Homo sapiens)

>  <measuredMetric>
pKi

>  <observedValue>
7.06

$$$$
>  <cpdSmiles>
Cc1ccc(S(=O)(=O)C/C(=N\Nc2ccccc2)c2cc3ccccc3oc2=O)cc1

>  <studySystem>
Carbonic anhydrase 9 (Homo sapiens)

>  <measuredMetric>
pKi

>  <observedValue>
5.40

$$$$
>  <cpdSmiles>
O=C(N/N=C(\CS(=O)(=O)c1ccccc1)c1cc2ccccc2oc1=O)c1ccccc1

>  <studySystem>
Carbonic anhydrase 9 (Homo sapiens)

>  <measuredMetric>
pKi

>  <observedValue>
4.80

$$$$
>  <cpdSmiles>
O=c1oc2ccccc2cc1/C(CS(=O)(=O)c1ccccc1)=N/Nc1ccccc1

>  <studySystem>
Carbonic anhydrase 9 (Homo sapiens)

>  <measuredMetric>
pKi

>  <observedValue>
5.82

$$$$
